Where these numbers come from: paper PMC7156458

Kindly state Th-T fluorescence, mean of three wells for each of the entries shown.
Measured target: Aβ42 (Homo sapiens, UniProt P05067)
Sequence (P05067 672-713): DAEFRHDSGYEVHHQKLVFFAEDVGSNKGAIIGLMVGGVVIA
Assay comment: Th-T (thioflavin-T) assay of Aβ42 aggregation
Format: biochemical
Applied conditions: Aβ42 aggregation time course, reading M130
Answer with the value's number alone.

Could you share which Th-T fluorescence, mean of three wells value was measured for C=C1CCC2C(C)(CCC=C(C)C)C(O)CCC2(C)C1Cc1c(OC)oc(C)c(C)c1=O (stereo not shown) [Compound 15, viridoxin A hydrolysate] ? 3.34

Thanks! And C=C1CC[C@H]2[C@]3(C)C[C@H](C=C(C)C)O[C@H]3CC[C@]2(C)[C@@H]1Cc1c(O)c(C)c(C)oc1=O ? 3.02

Thanks! And C=C1CCC2C(C)(CCC=C(C)C)C(O)CCC2(C)C1Cc1c(O)c(C)c(C)oc1=O (stereo not shown) [Compound 4] ? 2.729

Thanks! And C=C1CCC2C(C)(CC(=O)C=C(C)C)C(O)CCC2(C)C1Cc1c(OC)oc(C)c(C)c1=O (stereo not shown) ? 3.54
